- Target: hDRD2 (Homo sapiens, UniProt P14416);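 note: agonist activity at human DRD2 in DRD2-expressing cells, read as intracellular calcium mobilization with a FLIPR Calcium 4 fluorescent dye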
- Sequence (P14416 whole entry): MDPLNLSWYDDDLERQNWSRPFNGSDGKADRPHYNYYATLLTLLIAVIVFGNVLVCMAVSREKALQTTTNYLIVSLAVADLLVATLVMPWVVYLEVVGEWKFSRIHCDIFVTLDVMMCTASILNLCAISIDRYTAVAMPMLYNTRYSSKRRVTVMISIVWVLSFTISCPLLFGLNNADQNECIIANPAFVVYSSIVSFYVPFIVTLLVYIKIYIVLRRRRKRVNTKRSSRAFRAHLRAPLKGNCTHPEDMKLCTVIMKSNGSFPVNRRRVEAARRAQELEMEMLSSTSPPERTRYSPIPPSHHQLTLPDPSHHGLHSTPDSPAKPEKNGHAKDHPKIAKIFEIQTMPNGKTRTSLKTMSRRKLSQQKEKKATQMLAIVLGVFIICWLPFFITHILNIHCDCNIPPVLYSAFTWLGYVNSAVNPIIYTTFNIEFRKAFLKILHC
- Procedure details: cell-based
- Design: host or cells: 'Cells expressing hDRD2'
- Conditions: read-out: hDRD2 %Emax ± SEM
Numbered stars: 1 amine (or outer) side, 2 acyl side, 3 side chain; on linkers, the order of the positions; unused ones are H or OH. Bridge positions count the residues as written; N and C are the ends. Square brackets hold non-standard residues; d marks the D form. Peptide text beside a SMILES is read from it. X1 = CN1C[C@H](CSCCN(CCSC[C@@H]2C[C@@H]3c4cccc5[nH]cc(c45)C[C@H]3N(C)C2)[C@H](CCCCN[*:2])C(=O)[*:1])C[C@@H]2c3cccc4[nH]cc(c34)C[C@H]21; 4Pal = N[C@@H](Cc1ccncc1)C(=O)O
Please respond with reported Emax for every item in the list.
Write the value in % as a bare number.

Emax measured on C[C@@H](O)[C@@H]1NC(=O)[C@H](CCCCN)NC(=O)[C@@H](Cc2c[nH]c3ccccc23)NC(=O)[C@H](Cc2ccncc2)NC(=O)[C@H](Cc2ccccc2)NC(=O)[C@H](CCCNC(=N)N)NC(=O)[C@H](N(CCSC[C@@H]2C[C@@H]3c4cccc5[nH]cc(c45)C[C@H]3N(C)C2)CCSC[C@@H]2C[C@@H]3c4cccc5[nH]cc(c45)C[C@H]3N(C)C2)CCCCNC(=O)[C@H](Cc2ccccc2)NC1=O [Compound 29] (RF[4Pal][dW]KTF; linker N-C via X1) = 89

Emax measured on C[C@@H](O)[C@@H]1NC(=O)[C@H](CCCCN)NC(=O)[C@@H](Cc2c[nH]c3ccccc23)NC(=O)[C@H](Cc2ccccc2)NC(=O)[C@H](Cc2ccccc2)NC(=O)[C@H](CCCNC(=N)N)NC(=O)[C@H](NCCSC[C@@H]2C[C@@H]3c4cccc5[nH]cc(c45)C[C@H]3N(C)C2)CCCCNC(=O)[C@H](Cc2ccc(F)c(F)c2)NC1=O [Compound 6A] = 91.5

Emax measured on C[C@@H](O)[C@@H]1NC(=O)[C@H](CCCCN)NC(=O)[C@@H](Cc2c[nH]c3ccccc23)NC(=O)[C@H](Cc2ccccc2)NC(=O)[C@H](Cc2ccccc2)NC(=O)[C@H](CCCNC(=N)N)NC(=O)[C@H](NC[C@@H](Cc2ccc(O)cc2)NC(=O)CSC[C@@H]2C[C@@H]3c4cccc5[nH]cc(c45)C[C@H]3N(C)C2)CCCCNC(=O)[C@H](Cc2ccccc2)NC1=O [Compound 41] = 91.2

Emax measured on C[C@@H](O)[C@@H]1NC(=O)[C@H](CCCCN)NC(=O)[C@@H](Cc2c[nH]c3ccccc23)NC(=O)[C@H](Cc2ccncc2)NC(=O)[C@H](Cc2ccccc2)NC(=O)[C@H](CCCNC(=N)N)NC(=O)[C@H](NC[C@H](Cc2ccc(O)cc2)NC(=O)CS(=O)(=O)C[C@@H]2C[C@@H]3c4cccc5[nH]cc(c45)C[C@H]3N(C)C2)CCCCNC(=O)[C@H](Cc2ccccc2)NC1=O [Compound 21] = 92.1

These measurements were taken from patent EP2914280B1.
